In this section, each of the molecules is paired with its reported IC50.
- experimental-system: MraY from S. aureus (Staphylococcus aureus)
- Construct: made in house; host or cells: E. coli Lemo21
- Sequence (Q2FZ93 whole entry): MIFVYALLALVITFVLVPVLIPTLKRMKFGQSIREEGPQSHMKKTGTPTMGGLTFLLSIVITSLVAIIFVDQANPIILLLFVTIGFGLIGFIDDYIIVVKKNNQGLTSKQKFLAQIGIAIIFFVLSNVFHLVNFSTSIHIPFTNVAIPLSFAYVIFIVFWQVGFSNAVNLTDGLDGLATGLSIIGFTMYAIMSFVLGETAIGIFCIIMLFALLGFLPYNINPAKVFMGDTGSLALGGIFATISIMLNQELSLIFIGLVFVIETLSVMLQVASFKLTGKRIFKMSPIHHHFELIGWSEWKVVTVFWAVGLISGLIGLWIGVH
- measurement-protocol: Fluorescence-based in vitro MraY inhibition assay (dansylated Park's nucleotide, crude membrane preparation)
- Assay type: biochemical
- measurement-context: crude membrane preparation of MraY heterologously overexpressed in E. coli; triplicates; mean ± standard deviation; read-out: IC50, in vitro inhibitory activity against MraY from S. aureus
readout: IC50 (µM)

INSERT INTO assay_data (molecule, readout_units, reported_result) VALUES
  ('CC(C)C[C@@H](NC(=O)[C@H](CCCCN)NC(=O)N[C@H](C(=O)O)C(C)C)C(=O)NCCCN[C@@H](C(=O)O)[C@H](O)[C@H]1O[C@@H](n2ccc(=O)[nH]c2=O)[C@H](O)[C@@H]1O [Compound 15, 6′-epi-D-Leu muraymycin analogue]', 'µM', 10),
  ('CC(C)C[C@H](NC(=O)[C@H](CCCCN)NC(=O)N[C@H](C(=O)O)C(C)C)C(=O)NCCCN[C@@H](C[C@H]1O[C@@H](n2ccc(=O)[nH]c2=O)[C@H](O)[C@@H]1O)C(=O)O', 'µM', 2.5),
  ('CC(C)C[C@@H](NC(=O)[C@H](CCCCN)NC(=O)N[C@H](C(=O)O)C(C)C)C(=O)NCCCN[C@@H](C[C@H]1O[C@@H](n2ccc(=O)[nH]c2=O)[C@H](O)[C@@H]1O)C(=O)O', 'µM', 2),
  ('CC(C)C[C@@H](NC(=O)[C@H](CCCCN)NC(=O)N[C@H](C(=O)O)C(C)C)C(=O)NCCCN[C@H](C(=O)O)[C@@H](O)[C@H]1O[C@@H](n2ccc(=O)[nH]c2=O)[C@H](O)[C@@H]1O [Compound 17, 5′-epi-D-Leu muraymycin analogue]', 'µM', 21),
  ('CC(C)C[C@H](NC(=O)[C@H](CCCCN)NC(=O)N[C@H](C(=O)O)C(C)C)C(=O)NCCCN[C@H](C[C@H]1O[C@@H](n2ccc(=O)[nH]c2=O)[C@H](O)[C@@H]1O)C(=O)O', 'µM', 38),
  ('CC(C)C[C@H](NC(=O)[C@H](CCCCN)NC(=O)N[C@H](C(=O)O)C(C)C)C(=O)NCCCN[C@@H](C(=O)O)[C@H](O)[C@H]1O[C@@H](n2ccc(=O)[nH]c2=O)[C@H](O)[C@@H]1O [Compound 14, 6′-epi-L-Leu muraymycin analogue]', 'µM', 10),
  ('CC(C)C[C@H](NC(=O)[C@H](CCCCN)NC(=O)N[C@H](C(=O)O)C(C)C)C(=O)NCCCN[C@H](C(=O)O)[C@@H](O)[C@H]1O[C@@H](n2ccc(=O)[nH]c2=O)[C@H](O)[C@@H]1O [Compound 16, 5′-epi-L-Leu muraymycin analogue]', 'µM', 6.2),
  ('CC(C)C[C@@H](NC(=O)[C@H](CCCCN)NC(=O)N[C@H](C(=O)O)C(C)C)C(=O)NCCCN[C@H](C[C@H]1O[C@@H](n2ccc(=O)[nH]c2=O)[C@H](O)[C@@H]1O)C(=O)O', 'µM', 24);
